Entry source: patent US9630963B2

# tgt: human recombinant FGFR4 (Homo sapiens)
# Sequence (P22455 22-802): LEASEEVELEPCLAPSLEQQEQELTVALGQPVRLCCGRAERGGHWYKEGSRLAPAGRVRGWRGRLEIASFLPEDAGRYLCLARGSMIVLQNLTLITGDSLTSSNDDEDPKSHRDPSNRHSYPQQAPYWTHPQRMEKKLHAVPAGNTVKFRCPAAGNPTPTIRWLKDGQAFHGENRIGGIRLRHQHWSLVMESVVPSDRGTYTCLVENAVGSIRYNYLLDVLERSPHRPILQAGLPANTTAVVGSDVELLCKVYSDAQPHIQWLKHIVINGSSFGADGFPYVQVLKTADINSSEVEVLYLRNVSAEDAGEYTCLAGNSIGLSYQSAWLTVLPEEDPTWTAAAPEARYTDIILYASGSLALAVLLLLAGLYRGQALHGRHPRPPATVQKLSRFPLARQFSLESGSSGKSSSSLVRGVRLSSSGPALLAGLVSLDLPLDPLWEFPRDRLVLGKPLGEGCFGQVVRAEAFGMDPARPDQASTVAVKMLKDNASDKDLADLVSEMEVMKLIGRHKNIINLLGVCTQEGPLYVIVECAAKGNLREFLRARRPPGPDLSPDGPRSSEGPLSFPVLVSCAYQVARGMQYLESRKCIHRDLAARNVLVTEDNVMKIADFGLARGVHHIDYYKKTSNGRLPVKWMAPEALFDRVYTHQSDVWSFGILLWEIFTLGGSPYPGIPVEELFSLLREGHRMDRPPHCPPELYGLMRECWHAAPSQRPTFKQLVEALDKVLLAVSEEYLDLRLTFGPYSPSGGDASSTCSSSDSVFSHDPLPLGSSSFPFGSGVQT
# method-notes: FGFR family enzymatic activity assay (Caliper-based kinase assay), FGFR4
# assay-conditions: FGFR4 2 nM, ATP 250 μM, peptide substrate 1 μM, room temperature 3 h
measurement-kind: pIC50
The value called pIC50 is obtained by taking minus log10 of the concentration in mol/L.

// solved cases for pIC50 follow
C=CC(=O)Nc1ccc(CCn2c(=O)c(-c3cc(OC)cc(OC)c3Cl)cc3cnc(NCCO)nc32)cc1; 7.37
C=CC(=O)Nc1ccc(CCn2c(=O)c(-c3cc(OC)cc(OC)c3Cl)cc3cnc(NCCN4CCOCC4)nc32)nc1; 7.38

// query # pIC50 lookup, item "C=CC(=O)Nc1ccc(CCn2c(=O)c(-c3c(Cl)c(OC)cc(OC)c3Cl)cc3cnc(NC4CCN(C)CC4)nc32)cc1"
// result 7.27

// query Request: "C=CC(=O)Nc1ccc(CCn2c(=O)c(-c3cc(OC)cc(OC)c3Cl)cc3cnc(NC)nc32)cc1"
// result 7.59

====

Catalogue of IC50 values
# tgt: human recombinant FGFR3 (Homo sapiens, UniProt P22607)
# Sequence (P22607 23-806): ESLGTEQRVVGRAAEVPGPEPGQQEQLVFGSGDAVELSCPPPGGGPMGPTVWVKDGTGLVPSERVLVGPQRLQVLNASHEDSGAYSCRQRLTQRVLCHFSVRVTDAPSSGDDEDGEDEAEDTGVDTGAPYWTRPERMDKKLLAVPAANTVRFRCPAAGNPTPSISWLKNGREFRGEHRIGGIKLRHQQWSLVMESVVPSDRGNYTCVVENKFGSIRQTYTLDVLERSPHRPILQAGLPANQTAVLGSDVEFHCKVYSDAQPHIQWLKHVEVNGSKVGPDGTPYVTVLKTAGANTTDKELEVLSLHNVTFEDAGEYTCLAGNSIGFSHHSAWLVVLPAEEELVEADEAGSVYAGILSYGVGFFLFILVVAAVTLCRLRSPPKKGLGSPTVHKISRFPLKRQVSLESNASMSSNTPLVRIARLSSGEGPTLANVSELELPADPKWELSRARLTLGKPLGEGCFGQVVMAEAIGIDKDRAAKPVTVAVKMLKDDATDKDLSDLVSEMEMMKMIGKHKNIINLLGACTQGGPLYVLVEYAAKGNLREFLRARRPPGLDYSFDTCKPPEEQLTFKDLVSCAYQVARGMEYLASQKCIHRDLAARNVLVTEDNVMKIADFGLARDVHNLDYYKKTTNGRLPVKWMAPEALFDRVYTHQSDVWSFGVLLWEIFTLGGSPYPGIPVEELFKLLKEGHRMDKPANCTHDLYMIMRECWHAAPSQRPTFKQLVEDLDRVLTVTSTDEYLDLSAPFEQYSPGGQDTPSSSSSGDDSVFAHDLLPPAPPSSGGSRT
# method-notes: FGFR family enzymatic activity assay (Caliper-based kinase assay), FGFR3
# assay-conditions: FGFR3 0.9 nM, ATP 120 μM, peptide substrate 1 μM, room temperature 3 h
Lab book: enter the figure in nM, no units written.

// solved cases for IC50 follow
C=CC(=O)Nc1ccc(CCn2c(=O)c(-c3cc(OC)cc(OC)c3F)cc3cnc(NCCN4CCOCC4)nc32)cc1; 9.6
C=CC(=O)Nc1ccc(CCn2c(=O)c(-c3cc(OC)cc(OC)c3Cl)cc3cnc(NCCO)nc32)cc1; 6
C=CC(=O)Nc1ccc(CCn2c(=O)c(-c3c(Cl)c(OC)cc(OC)c3Cl)cc3cnc(NCC(O)CO)nc32)cc1 (stereo not shown); 3.2
C=CC(=O)Nc1ccc(CCn2c(=O)c(-c3c(Cl)c(OC)cc(OC)c3Cl)cc3cnc(NC(CO)CO)nc32)cc1; 6.7
C=CC(=O)Nc1ccc(CCn2c(=O)c(-c3c(Cl)c(OC)cc(OC)c3Cl)cc3cnc(NCCN4CCOCC4)nc32)cc1; 4
C=CC(=O)Nc1ccc(CCn2c(=O)c(-c3c(Cl)c(OC)cc(OC)c3Cl)cc3cnc(NC4CCN(C)CC4)nc32)cc1; 9.9

Shifting focus to the molecule that follows.
// query # IC50 lookup, item "C=CC(=O)Nc1ccc(CCn2c(=O)c(-c3c(Cl)c(OC)cc(OC)c3Cl)cc3cnc(NCCO)nc32)cc1"
// result 4.6

====

# tgt: human recombinant FGFR2 (Homo sapiens, UniProt P21802)
# Sequence (P21802 22-821): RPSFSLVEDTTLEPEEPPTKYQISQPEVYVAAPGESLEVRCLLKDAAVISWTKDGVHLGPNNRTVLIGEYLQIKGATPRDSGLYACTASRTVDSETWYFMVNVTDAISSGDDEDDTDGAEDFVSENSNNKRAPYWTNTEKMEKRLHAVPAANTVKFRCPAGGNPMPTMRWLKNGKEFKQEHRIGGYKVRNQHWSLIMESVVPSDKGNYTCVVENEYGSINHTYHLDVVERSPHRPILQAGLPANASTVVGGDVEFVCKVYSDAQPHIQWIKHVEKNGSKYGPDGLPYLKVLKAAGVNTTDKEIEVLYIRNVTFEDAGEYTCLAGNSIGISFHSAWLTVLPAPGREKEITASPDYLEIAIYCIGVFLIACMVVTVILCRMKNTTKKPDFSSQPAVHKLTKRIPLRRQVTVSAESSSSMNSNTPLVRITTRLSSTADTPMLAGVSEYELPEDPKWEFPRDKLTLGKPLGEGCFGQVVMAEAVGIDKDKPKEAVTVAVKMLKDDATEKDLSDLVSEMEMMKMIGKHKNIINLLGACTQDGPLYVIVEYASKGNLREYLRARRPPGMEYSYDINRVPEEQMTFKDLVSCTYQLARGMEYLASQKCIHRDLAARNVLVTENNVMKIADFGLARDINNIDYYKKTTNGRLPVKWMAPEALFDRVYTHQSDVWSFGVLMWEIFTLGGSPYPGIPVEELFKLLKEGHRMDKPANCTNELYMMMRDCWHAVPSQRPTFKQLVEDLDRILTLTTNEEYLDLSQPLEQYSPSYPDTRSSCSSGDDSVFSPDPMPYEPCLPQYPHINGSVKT
# method-notes: FGFR family enzymatic activity assay (Caliper-based kinase assay), FGFR2
# assay-conditions: FGFR2 0.1 nM, ATP 75 μM, peptide substrate 1 μM, room temperature 3 h
# Source text: A Caliper-based kinase assay (Caliper Life Sciences, Hopkinton, Mass.) was used to measure inhibition of FGFR family (FGFR1, FGFR2, FGFR3, FGFR4) kinase activity of a compound of Formula (I′) or (I). […] This value is presented as the IC50.
Catalogue of IC50 values

// solved cases for IC50 follow
C=CC(=O)Nc1ccc(CCn2c(=O)c(-c3c(Cl)c(OC)cc(OC)c3Cl)cc3cnc(NC)nc32)nc1; 2 nM
C=CC(=O)Nc1ccc(CCn2c(=O)c(-c3c(Cl)c(OC)cc(OC)c3Cl)cc3cnc(NCCN4CCOCC4)nc32)nc1; 4.2 nM
C=CC(=O)Nc1ccc(CCn2c(=O)c(-c3c(Cl)c(OC)cc(OC)c3Cl)cc3cnc(NC)nc32)cc1; 1.6 nM
C=CC(=O)Nc1ccc(CCn2c(=O)c(-c3cc(OC)cc(OC)c3Cl)cc3cnc(NCCN4CCOCC4)nc32)nc1; 5.5 nM
C=CC(=O)Nc1ccc(CCn2c(=O)c(-c3cc(OC)cc(OC)c3Cl)cc3cnc(NC)nc32)cn1; 1.7 nM

// query # IC50 lookup, item "C=CC(=O)Nc1cccc(Cn2c(=O)c(-c3c(Cl)c(OC)cc(OC)c3Cl)cc3cnc(NCCCCN(CC)CC)nc32)c1"
// result 1 nM

// query Request: "C=CC(=O)Nc1ccc(CCn2c(=O)c(-c3cc(OC)cc(OC)c3Cl)cc3cnc(NCCN4CCN(CC(C)(C)O)CC4)nc32)cc1"
// result 1.6 nM
